Kindly state growth for each of the entries shown.
System: SNB-19 CNS
Assay: NCI-60 one-dose screen, 48 h (100 = growth as untreated, 0 = no growth, -100 = all killed)
Settings: 10 µM
About 83,000 compounds went through this panel and 20% of them were active in at least one assay; those are over-represented in the sample as a whole. The source made the active and inactive calls. Rule for the calls: active = growth percent below 10; inactive = the rest.

Task: Which value of growth has been reported for "Cc1cc(C#Cc2ccccc2)ccc1-n1c(/C=C/c2cc(O)ccc2O)nc2ccccc2c1=O" in the records?
Output: 26.6% (inactive)

Task: Which value of growth has been reported for "Oc1ccccc1-c1nnc(Cn2c(Cc3cccc4ccccc34)nc3ccccc32)o1" in the records?
Output: 87.1% (inactive)

Task: Which value of growth has been reported for COc1cc(C2C=C(c3ccc(Cl)c(Cl)c3)N=C3SC(C)=CN32)cc(OC)c1OC (stereo not given) in the records?
Output: 79.5% (inactive)

Task: Which value of growth has been reported for CC1(CO)CCCC12OCCO2 (stereo not given) in the records?
Output: 105% (inactive)

Task: Which value of growth has been reported for "Fc1cc(-c2ncc(-c3cc(F)c(F)c(F)c3)c(NC3CCCCCC3)n2)cc(F)c1F" in the records?
Output: 99.7% (inactive)

Task: Which value of growth has been reported for "O=C1NN(c2ccccc2)C(c2cccnc2)=N/C1=C\c1cccnc1" in the records?
Output: 92.7% (inactive)

Task: Which value of growth has been reported for "COc1cc(/C=C/C(=O)c2cc(-c3ccccc3)ccc2O)cc(OC)c1OC" in the records?
Output: 93.3% (inactive)

Task: Which value of growth has been reported for "Oc1[nH]c2ccccc2c1/C=c1/cc2c(c(-c3ccc(C(F)(F)F)cc3)n1)=Nc1ccccc1-2" in the records?
Output: 82.7% (inactive)

Task: Which value of growth has been reported for Cc1cc(O)c(C2=NN(c3ccc(S(N)(=O)=O)cc3)C(c3ccc(N(C)C)cc3)C2)c(C)c1Cl (stereo not given) in the records?
Output: 107% (inactive)

Task: Which value of growth has been reported for "COc1ccccc1CNCCCN1C(=O)c2ccc3c4c(ccc(c24)C1=O)C(=O)N(CCCNCCNCCCN)C3=O" in the records?
Output: 10.3% (inactive)

====

Test system: UACC-62 melanoma
Test: NCI-60 one-dose screen, 48 h (100 = growth as untreated, 0 = no growth, -100 = all killed)
Conditions: 10 µM
This is part of a sample that, as a whole, favours compounds with a hit. Of some 83,000 tested, about 20% had one in any assay.
Please respond with class 1 when measured growth is strictly beneath 70%, and with class 0 in all other cases.

Task: Would you kindly verify if growth of "COc1ccc2nc(-c3ccccc3)cc(C(C)=O)c2c1" is strictly less than 70%?
Output: class 0

Task: Would you kindly verify if growth of "CC(=O)O[C@H]1CC[C@@]2(C)[C@@H](CC[C@@H]3[C@@H]2CC[C@]2(C)C=C(C=O)C[C@@H]32)C1" is strictly less than 70%?
Output: class 0

Task: Would you kindly verify if growth of Nc1nc2c(ncn2C2OC3COP(=O)(O)OC4C(COP(=O)(O)OC2C3O)OC(n2cnc3c(N)ncnc32)C4O)c(=O)[nH]1 (stereo not given) is strictly less than 70%?
Output: class 0

Task: Would you kindly verify if growth of "CCOCC[P+](c1ccccc1)(c1ccccc1)c1ccccc1" is strictly less than 70%?
Output: class 1

Task: Would you kindly verify if growth of "CN(C1c2ccccc2Oc2ccccc21)S(=O)(=O)c1cc(Cl)ccc1Cl" is strictly less than 70%?
Output: class 1

Task: Would you kindly verify if growth of "N#CN1CC[C@H](C(=O)Nc2ncc(-c3ccncc3)s2)C1" is strictly less than 70%?
Output: class 1

Task: Would you kindly verify if growth of "Cc1nn2c(/C=C3/C(=O)Nc4ccc(Cl)cc43)c(-c3ccccc3)nc2s1" is strictly less than 70%?
Output: class 1

Task: Would you kindly verify if growth of "O=S(=O)(NC1c2ccccc2Oc2ccccc21)c1ccccc1" is strictly less than 70%?
Output: class 0

Task: Would you kindly verify if growth of "CS(=O)(=O)Nc1ccc([N+](=O)[O-])cc1Oc1ccccc1" is strictly less than 70%?
Output: class 0

====

Test system: NCI-H460 lung
Assay: NCI-60 one-dose screen, 48 h
Conditions: 10 µM
About 83,000 compounds went through this panel and 20% of them were active in at least one assay; those are over-represented in the sample as a whole. Calls of active or inactive are those of the source. How the source made its calls: active means growth percent below 10; inactive means the rest.
One label from this list, please: active, inactive

Task: Per the records of this test, what outcome belongs to "Clc1cc(Cl)c(OCCCCCCN2CCNCC2)c(Cl)c1" ?
Output: active

Task: Per the records of this test, what outcome belongs to O=C(OCC1OC(n2cc(C(F)(F)F)c(=O)[nH]c2=O)CC1OC(=O)c1ccc([N+](=O)[O-])cc1)c1ccc([N+](=O)[O-])cc1 (stereo not given) ?
Output: inactive

Task: Per the records of this test, what outcome belongs to "COC(=O)c1ccc(Cn2ccc(=O)[nH]c2=O)cc1" ?
Output: inactive

Task: Per the records of this test, what outcome belongs to "O=C(Nc1ccc(Oc2ccc(Nc3nc4ccccc4s3)cc2)cc1)Nc1ccc(Cl)c(Cl)c1" ?
Output: inactive

Task: Per the records of this test, what outcome belongs to CN(C)c1ccc2c(c1)OC(N)=C(C#N)C2c1ccc2c(c1)CCCN2C (stereo not given) ?
Output: inactive

====

Tested on: SW-620 colon
Assay: NCI-60 one-dose screen, 48 h (100 = growth as untreated, 0 = no growth, -100 = all killed)
Conditions: 10 µM
About 83,000 compounds went through this panel and 20% of them were active in at least one assay; those are over-represented in the sample as a whole.
MEASURE: growth (%)
Give the value in % but do not write % after it.

Task: Find growth (SW-620 colon) for the entry "O=C(Nc1ccc(CN2CCOCC2)cc1)c1ccc(-c2cc(Cl)ccc2Cl)o1"
Output: -2.26

Task: Find growth (SW-620 colon) for the entry "C=CCn1ccc(=O)nc1SC"
Output: 103

Task: Find growth (SW-620 colon) for the entry "Cc1ccc2c3c(cccc13)-c1ccccc1C2=O"
Output: 93

Task: Find growth (SW-620 colon) for the entry "CC(=O)OCC(COC(C)=O)(COC(C)=O)COC(C)=O"
Output: 108

Task: Find growth (SW-620 colon) for the entry "COc1ccc2c(=O)cc(C(Cl)(Cl)Cl)oc2c1"
Output: -2.53

Task: Find growth (SW-620 colon) for the entry "CCOc1nc(-c2ccccc2)cc2c(O)c(C(=O)N/N=C/c3ccc(OC)cc3)[nH]c(=O)c12"
Output: 110

Task: Find growth (SW-620 colon) for the entry "O=c1ccc2nc(-c3ccccc3)nn(-c3ccccc3)c-2c1"
Output: -80.5

Task: Find growth (SW-620 colon) for the entry "CCCc1ccnc(NS(=O)(=O)c2ccc(N)cc2)n1"
Output: 99.5

Task: Find growth (SW-620 colon) for the entry "CN(C)CCCN(Cc1ccccc1O)C(=S)Nc1ccc(Cl)cc1"
Output: 100

Task: Find growth (SW-620 colon) for the entry "COc1ccc(OC)c([N+](=O)[O-])c1C=O"
Output: 65.1

Task: Find growth (SW-620 colon) for the entry "COc1cc(-c2nc(-c3nnc(-c4cccnc4)o3)c3ccccn23)cc(OC)c1OC"
Output: 92.8

====

Test system: RPMI-8226 leukemia
Experiment: NCI-60 one-dose screen, 48 h (100 = growth as untreated, 0 = no growth, -100 = all killed)
Conditions: 10 µM
The panel holds about 83,000 compounds, 20% with a hit somewhere; the sample as a whole holds those more often.
Please respond with Yes when measured growth is strictly beneath 90%, and with No in all other cases.

Task: Would you kindly verify if growth of O=[N+]([O-])C1CC2C=CC1C2 (stereo not drawn) is strictly less than 90%?
Output: No

Task: Would you kindly verify if growth of COc1ccc(NC(=O)c2sc3nc4c(cc3c2N)C(O)CCC4)cc1 (stereo not drawn) is strictly less than 90%?
Output: No

Task: Would you kindly verify if growth of COc1ccc(C2C=C(c3ccc(Cl)cc3)N=C3SC=CN32)c(Br)c1 (stereo not drawn) is strictly less than 90%?
Output: Yes

Task: Would you kindly verify if growth of "CCCCOCCOCCOCc1cc2c(cc1Br)OCO2" is strictly less than 90%?
Output: No

Task: Would you kindly verify if growth of COc1nc2c(c(=O)[nH]1)C(c1ccc(Oc3ccnc4cc(Cl)ccc34)c(OC)c1)C=C(c1cc(OC)c(OC)c(OC)c1)N2 (stereo not drawn) is strictly less than 90%?
Output: No

Task: Would you kindly verify if growth of "Cc1nnc2c3nnc(-c4ccc(Cl)cc4)n3c3ccccc3n12" is strictly less than 90%?
Output: No

Task: Would you kindly verify if growth of "COc1cc(OC)cc(N2CCN(C(=O)Nc3nc4cc(F)ccc4nc3OC)CC2)c1" is strictly less than 90%?
Output: Yes

Task: Would you kindly verify if growth of "O=C(Nc1cccc(Cl)c1)OCC(COC(=O)Nc1cccc(Cl)c1)(COC(=O)Nc1cccc(Cl)c1)[N+](=O)[O-]" is strictly less than 90%?
Output: Yes

Task: Would you kindly verify if growth of "C=CCc1cc(Nc2c3ccc(Cl)cc3nc3ccc(OC)cc23)cc(CN(CC)CC)c1O" is strictly less than 90%?
Output: Yes

Task: Would you kindly verify if growth of "CCCCCCCCCCCCCCCCCBr" is strictly less than 90%?
Output: No

Task: Would you kindly verify if growth of "O=C1/C(=C/c2ccc(O)cc2)CSc2ccc(Cl)cc21" is strictly less than 90%?
Output: No

Task: Would you kindly verify if growth of "CC(C)(C)c1ccc(OCCCCCCN2CCNCC2)cc1" is strictly less than 90%?
Output: Yes

Task: Would you kindly verify if growth of CN(C)c1ccc2c(c1)OC(N)=C(C#N)C2c1ccc2c(c1)CCCN2C (stereo not drawn) is strictly less than 90%?
Output: Yes

Task: Would you kindly verify if growth of "Cc1ccc([P+](Cc2ccccc2)(c2ccccc2)c2ccccc2)cc1" is strictly less than 90%?
Output: Yes

Task: Would you kindly verify if growth of "CCCCCCCC/C=C/CCCCCCCCC1=NCCN1CCO" is strictly less than 90%?
Output: Yes

Task: Would you kindly verify if growth of "CN(C)CCCN1c2ccccc2Sc2ccc(C(F)(F)F)cc21" is strictly less than 90%?
Output: Yes

Task: Would you kindly verify if growth of "C/C(=N\NC(N)=S)C(C)(C)O" is strictly less than 90%?
Output: Yes

Task: Would you kindly verify if growth of "Cc1ccc(-n2nnc3c(sc4ccccc43)c2=O)cc1" is strictly less than 90%?
Output: Yes

Task: Would you kindly verify if growth of "Nc1nc(SCC#CCCl)c2[nH]cnc2n1" is strictly less than 90%?
Output: Yes

Task: Would you kindly verify if growth of "CCOC(=O)c1cc(-c2ccccc2)nc(N)n1" is strictly less than 90%?
Output: No

Task: Would you kindly verify if growth of "COc1cc2c3c(cccc3c1)C(=O)N(CCN1CCCC1)C2=O" is strictly less than 90%?
Output: Yes

The origin of these recorded values is PubChem BioAssay (NCI).
